# subject of test: panel of 255 wild-type kinases (Homo sapiens)
# Sequence (Q16832 22-855): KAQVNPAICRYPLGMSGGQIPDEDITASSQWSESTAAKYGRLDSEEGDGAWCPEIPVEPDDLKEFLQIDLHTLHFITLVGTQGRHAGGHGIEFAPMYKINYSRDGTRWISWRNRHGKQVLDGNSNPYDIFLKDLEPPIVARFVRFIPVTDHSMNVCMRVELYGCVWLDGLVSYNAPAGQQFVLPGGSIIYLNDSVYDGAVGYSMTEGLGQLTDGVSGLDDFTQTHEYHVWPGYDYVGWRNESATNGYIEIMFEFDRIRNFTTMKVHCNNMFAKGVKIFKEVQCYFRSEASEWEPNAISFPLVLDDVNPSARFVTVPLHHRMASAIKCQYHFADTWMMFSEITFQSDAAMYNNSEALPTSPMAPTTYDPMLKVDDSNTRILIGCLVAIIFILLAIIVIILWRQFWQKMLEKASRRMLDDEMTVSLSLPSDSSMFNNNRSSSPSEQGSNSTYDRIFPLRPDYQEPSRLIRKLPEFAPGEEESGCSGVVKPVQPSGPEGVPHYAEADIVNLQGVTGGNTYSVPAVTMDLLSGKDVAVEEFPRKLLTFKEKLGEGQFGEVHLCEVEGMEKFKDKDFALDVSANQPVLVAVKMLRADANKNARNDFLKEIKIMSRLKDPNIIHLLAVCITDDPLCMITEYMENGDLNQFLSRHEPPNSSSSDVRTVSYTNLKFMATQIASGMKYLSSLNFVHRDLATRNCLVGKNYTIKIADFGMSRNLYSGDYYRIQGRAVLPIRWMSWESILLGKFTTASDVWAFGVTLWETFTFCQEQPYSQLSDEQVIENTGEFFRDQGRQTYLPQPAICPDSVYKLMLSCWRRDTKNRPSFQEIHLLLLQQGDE
# protocol details: Kinase panel profiling at 1 µmol/L (MSA or IMAP), percentage inhibition
# Format: biochemical
# condition details: kinase DDR2; 1 µmol/L single concentration; read-out: %-inhibition at 1 µmol/L, DDR2
assay metric: inhibition at 1 µM

Recorded inhibition at 1 µM, per entry:
Cc1nc(NC(=O)N2CCC[C@H]2C(N)=O)sc1-c1ccnc(C(C)(C)C(F)(F)F)c1 [alpelisib]    5.45%
O=C(Nc1cnn2ccc(N3CCC[C@@H]3c3cc(F)ccc3F)nc12)N1CC[C@H](O)C1 [larotrectinib]    26%

Exercise: Entry Cc1cc(Nc2ncnc3ccc(NC4=NC(C)(C)CO4)cc23)ccc1Oc1ccn2ncnc2c1 [tucatinib] : reported inhibition at 1 µM = ?
Key: 10%

Exercise: Entry Cn1cc(-c2cc3c(N4CCN(c5ncc([C@@](C)(N)c6ccc(F)cc6)cn5)CC4)ncnn3c2)cn1 [avapritinib] : reported inhibition at 1 µM = ?
Key: 98%

meta.source: paper PMC9516332
